B1: LINE1-full (parent)
chain: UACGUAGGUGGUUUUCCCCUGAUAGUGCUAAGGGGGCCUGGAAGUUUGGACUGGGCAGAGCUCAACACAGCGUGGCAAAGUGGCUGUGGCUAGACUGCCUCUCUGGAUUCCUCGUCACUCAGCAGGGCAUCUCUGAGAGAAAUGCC

- Variants of: B1
- EXPERIMENT: self-cleavage, relative activity (ratio to wild type); higher = more cleavage; in vitro, sequencing; the parent is a self-cleaving ribozyme
Listing: self-cleavage of selected variants
TEST_READOUT: self-cleavage

1. U9A C99A :: 0.67
2. U1C A141U :: 0.71
3. A30U A141G :: 0.87
4. U12C G33C :: 1.28
5. A79G A117U :: 1.06
6. G8A C37U :: 1.31
7. U12A C98U :: 0.41
8. U73G U81G :: 1.05
9. U12G A141G :: 1.22
10. U13G A67G :: 1.9
11. C101U U119C :: 1.65
12. A94G U115A :: 0.34
13. G35A A117G :: 1.7
14. A22G G32A :: 0.57
15. G74U U102A :: 1.79
16. U102A A107U :: 1.66

Recorded values, source the RNAGym collection of RNA variant scans (doi:10.7554/elife.90254).
